Target: T1, VEGFR-1-Fc (UniProt P17948 27-338)
T1 construct: domain: first three Ig domains; expressed in Drosophila S2 cells, purified on Protein A sepharose; also called VEGFR-1-Fc fusion protein; not shown: Fc fragment from the Signal-pIgPlus vector
T1 sequence (P17948 27-338): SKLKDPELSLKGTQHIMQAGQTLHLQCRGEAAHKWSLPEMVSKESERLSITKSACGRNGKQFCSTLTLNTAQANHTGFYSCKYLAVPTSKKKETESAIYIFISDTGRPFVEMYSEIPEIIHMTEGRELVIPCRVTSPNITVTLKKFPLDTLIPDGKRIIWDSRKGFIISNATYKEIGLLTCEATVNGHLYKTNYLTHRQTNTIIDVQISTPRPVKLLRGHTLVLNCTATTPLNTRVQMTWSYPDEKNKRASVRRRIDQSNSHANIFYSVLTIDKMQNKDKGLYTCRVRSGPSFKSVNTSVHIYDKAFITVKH
Assay: receptor-Fc IP
Excerpt: The binding assay procedure was identical to the immunoprecipitation using pentahistidine antibody described in Example 2, apart from the composition of the immunoprecipitation (IP) mixes. […]
METRIC: binding result

BINDER	binding result
53-8 (ligand) AHYNTEILKSIDNEWRKTQCMPIETLVDIFQEYPDEIEYIFKPPCVSVYRCGGCCNSEGLQCMNTSTSYLSKTLFEIKPHQGQHIGEMSFANHTSCRCMSKLD	no binding
44-1 (ligand) AHYNTEILKFMDVYQRSYCHPREVCIDVGKEFGVATNTFFKPSCVPLMRCGGCCNDEGLECVPTEESNITMQIMRIKPHQGQHIGEMSFLQHNKCECRPKKD	no binding
52-14 (ligand) AHYNTEILKSIDNEWRKTQCMPIETLVDIFQEFGVATNTFFKPPCVSVYRCGGCCNDEGLECMNTSTSYLSKTLFEITVPLSQGPKPVTISFANHTSCRCMSKLD	no binding
81-5 (ligand) AHYNTEILKFMDVYQRSYCHPIETLVDIFQEYPDEIEYIFKPSCVPLMRCGGCCNDEGLECVPTEESNITMQIMRIKPHQGQHIGEMSFANHTSCRCMSKLD	binds

INPUT: Report measured binding result; entry is 33-4 (ligand) GQNHHEVVKSIDNEWRKTQCMPIETLVDIFQEYPDEIEYIFKPPCVSVYRCGGCCNSEGLQCMNTSTSYLSKTLFEIKPHQGQHIGEMSFLQHNKCECRPKKD
OUTPUT: no binding

INPUT: Report measured binding result; entry is 21-8 (ligand) AHYNTEILKSIDNEWRKTQCMPREVCIDVGKEYPDEIEYIFKPSCVPLMRCGGCCNSEGLQCMNTSTSYLSKTLFEIKPHQGQHIGEMSFANHTSCRCMSKLD
OUTPUT: no binding

INPUT: Report measured binding result; entry is 81-13 (ligand) AHYNTEILKFMDVYQRSYCHPIETLVDIFQEYPDEIEYIFKPSCVPLMRCGGCCNDEGLECVPTEESNITMQIMRITVPLSQGPKPVTISFANHTSCRCMSKLD
OUTPUT: binds

INPUT: Report measured binding result; entry is 24-9 (ligand) AHYNTEILKSIDNEWRKTQCMPREVCIDVGKEFGVATNTFFKPSCVPLMRCGGCCNDEGLECVPTEESNITMQIMRITVPLSQGPKPVTISFLQHNKCECRPKKD
OUTPUT: no binding

INPUT: Report measured binding result; entry is 21-9 (ligand) AHYNTEILKSIDNEWRKTQCMPREVCIDVGKEYPDEIEYIFKPSCVPLMRCGGCCNDEGLECVPTEESNITMQIMRITVPLSQGPKPVTISFLQHNKCECRPKKD
OUTPUT: no binding
